Experiment: Optical characteristics, Table 3
Assay type: physicochemical
Protocol Conditions: 0.1 M phosphate buffer (pH 9), 1% DMSO; standard 2-Me TokyoMagenta (0.42)
Assign labels as follows, please: true for Φfl below 0.5; false for Φfl equal to or exceeding 0.5.

Find out if reported Φfl for C[Si]1(C)C2=C(Cl)C(=O)C=CC2=C(c2ccccc2C(=O)O)c2ccc(O)c(Cl)c21 [2-COOH DCTM] is less than 0.5
true

Find out if reported Φfl for Cc1ccccc1C1=C2C=CC(=O)C=C2[Si](C)(C)c2cc(O)ccc21 [2-Me TokyoMagenta] is less than 0.5
true

Find out if reported Φfl for Cc1ccccc1C1=C2C=CC(=O)C(Cl)=C2[Si](C)(C)c2c1ccc(O)c2Cl [2-Me DCTM] is less than 0.5
true

Find out if reported Φfl for C[Si]1(C)C2=CC(=O)C=CC2=C(c2ccccc2C(=O)O)c2ccc(O)cc21 [2-COOH TM] is less than 0.5
true

Find out if reported Φfl for Cc1ccccc1C1=C2C=CC(=O)C(F)=C2[Si](C)(C)c2c1ccc(O)c2F [2-Me DFTM] is less than 0.5
false

Find out if reported Φfl for C[Si]1(C)C2=C(F)C(=O)C=CC2=C(c2ccccc2C(=O)O)c2ccc(O)c(F)c21 [2-COOH DFTM] is less than 0.5
false
